test system: SK-MEL-2; assay: NCI tumour cell line growth inhibition, 48 h
Activity calls are given as the source filed them. Cut-off read from the data, not from the text of the source: active = GI50 up to about 1.1 µM and inactive = higher.
Outcome codes: active, inactive

{"columns": ["molecule", "target or test system", "qualitative label"],
 "data": [
  ["Cc1nc(-n2nc(-c3ccccc3)cc2-c2ccccc2)sc1C(=O)/C=C/c1ccc(/C=C/C(=O)c2sc(-n3nc(-c4ccccc4)cc3-c3ccccc3)nc2C)cc1", "SK-MEL-2", "inactive"],
  ["O=C(Nc1cccc2c1C(=O)c1c(NC(=O)c3ccccc3)ccc(Nc3cccc4c3C(=O)c3ccccc3C4=O)c1C2=O)c1ccccc1", "SK-MEL-2", "inactive"],
  ["COC(=O)C1=C(C(=O)OC)C(N(C)C)C(C(=O)OC)=C(C(=O)OC)S1", "SK-MEL-2", "inactive"],
  ["C=CCC1(O)c2ccccc2C(=O)c2c(O)ccc(O)c21 (stereo not given)", "SK-MEL-2", "inactive"],
  ["CSc1nc(O)c(C#N)c(-c2ccccc2)n1", "SK-MEL-2", "inactive"],
  ["CC(C)c1ccccc1NC(=O)C(=O)Cc1nc2ccccc2s1", "SK-MEL-2", "inactive"],
  ["Cc1ccc(S(=O)(=O)N2CCCN(S(=O)(=O)c3ccc(C)cc3)CCN(S(=O)(=O)c3ccc(C)cc3)CCCSCC2)cc1", "SK-MEL-2", "inactive"],
  ["N#CC(NCc1cccc(CNC(C#N)c2ccccc2)c1)c1ccccc1 (stereo not given)", "SK-MEL-2", "inactive"],
  ["COc1nc2ncc([C@@H](OC(C)=O)[C@@H](COC(C)=O)OC(C)=O)nc2c(=O)[nH]1", "SK-MEL-2", "inactive"],
  ["CC1CN=C(N(C(=O)Nc2ccccc2)c2ccc(Cl)c(Cl)c2)S1 (stereo not given)", "SK-MEL-2", "inactive"],
  ["Nc1nc(Nc2ccc(Cl)cc2)sc1C(=O)c1c[nH]c2ccccc12", "SK-MEL-2", "inactive"],
  ["O=NN(CCCl)C(=O)NC1CCSc2ccccc21 (stereo not given)", "SK-MEL-2", "inactive"],
  ["N=C(Cc1ccccc1)NCC(=O)O", "SK-MEL-2", "inactive"],
  ["O=c1[nH]c2c3ccccc3ccc2c2cc3c(cc12)OCO3", "SK-MEL-2", "inactive"],
  ["c1ccc2c(c1)cc1n2CC2CN=NC12 (stereo not given)", "SK-MEL-2", "inactive"],
  ["CCN1CCC(O)(/C=C/c2ccc(Cl)c(Cl)c2)C(C(=O)/C=C/c2ccc(Cl)c(Cl)c2)C1 (stereo not given)", "SK-MEL-2", "active"],
  ["CCOC(=O)/C=C/c1cccc(F)c1", "SK-MEL-2", "inactive"],
  ["CC1OC(CC(=O)O)CC2=C1C(=O)c1c(O)cccc1C2=O (stereo not given)", "SK-MEL-2", "active"],
  ["CC1(C)OCC2OC3([C@H](O)CCO)OC(C)(C)OC3C2O1 (stereo not given in full)", "SK-MEL-2", "inactive"],
  ["COc1cc(OCCN(C)C)c2[nH]c(C(=O)N3CC(CCl)c4c3cc(N)c3ccccc43)cc2c1 (stereo not given)", "SK-MEL-2", "active"],
  ["CCCCCCCNC(P(=O)(O)O)P(=O)(O)O", "SK-MEL-2", "inactive"],
  ["Cc1c(O)nc(-n2[nH]c3c(c2=O)CCCC3)[nH]c1=O", "SK-MEL-2", "inactive"],
  ["CC1CC/C(=C\\c2ccc(F)cc2)C2=C1C(c1ccc(F)cc1)N1C(=O)CSC1=N2 (stereo not given)", "SK-MEL-2", "inactive"],
  ["Nc1ncnc2c1ncn2[C@@H]1O[C@H](COP(=O)(O)O)[C@@H](O)[C@@H]1O", "SK-MEL-2", "inactive"],
  ["O=C(CCC(=O)Nc1ccccc1C(F)(F)F)N/N=C1\\C(=N\\NC(=O)CCC(=O)Nc2ccccc2C(F)(F)F)C(c2ccc3c(c2)OCO3)Oc2ccccc21 (stereo not given)", "SK-MEL-2", "inactive"],
  ["O=C1CCC(=O)N1n1c(Cc2ccccc2)n[nH]c1=O", "SK-MEL-2", "inactive"],
  ["CCOC(=O)C(=CNc1ccc(S(N)(=O)=O)cc1)C(=O)OCC", "SK-MEL-2", "inactive"],
  ["CCCc1ccc(/N=C\\c2cc(OC)c(OC)c(OC)c2)cc1", "SK-MEL-2", "inactive"],
  ["Cc1nc2c(c(N3CCN(C)CC3)n1)Cc1ccccc1-2", "SK-MEL-2", "inactive"],
  ["Cc1nc(N)c(N2CCN(S(N)(=O)=O)CC2)c(O)n1", "SK-MEL-2", "inactive"],
  ["O=S(=O)(C/C(=N\\O)c1ccccc1)c1ccccc1", "SK-MEL-2", "inactive"],
  ["CCCCN1C(=O)C[C@H]2[C@@H]3CCc4cc(OCCN5CCCC5)ccc4[C@H]3CC[C@]2(C)C1=O", "SK-MEL-2", "inactive"],
  ["Clc1ccc(NCc2nnc(COc3ccc(OCc4nnc(CNc5ccc(Cl)cc5)o4)c(Cl)c3)o2)cc1", "SK-MEL-2", "inactive"],
  ["C=C1CC(c2ccc(OCCCN3C(=O)c4ccccc4C3=O)cc2)OC1=O (stereo not given)", "SK-MEL-2", "inactive"],
  ["O=C1/C(=C/c2ccccc2O)N=C(c2ccccc2)N1c1nc2ccccc2s1", "SK-MEL-2", "inactive"],
  ["O=C1CC(c2c[nH]c3ccccc23)C(=O)N1c1ccccc1 (stereo not given)", "SK-MEL-2", "inactive"],
  ["Cc1cc(NC(=O)NC(=O)c2ccccc2NC(=O)CN(C)C)ccc1Oc1ncc(Br)cn1", "SK-MEL-2", "inactive"],
  ["OCc1ccc2c(c1)CC1(C2)Cc2cc3c(cc2C1O)CCC3 (stereo not given)", "SK-MEL-2", "inactive"],
  ["CC1(C)CC(=O)C2=C(C1)N(c1ccccc1)C1(O)C=CC(O)=C3C(=O)c4ccccc4C(=O)C321 (stereo not given)", "SK-MEL-2", "inactive"],
  ["CC1=C(C(=O)Nc2ccc([N+](=O)[O-])cc2)C(c2ccccc2F)C(C(=O)Nc2ccc([N+](=O)[O-])cc2)=C(C)N1", "SK-MEL-2", "inactive"]
]}

Where do these numbers come from? They come from ChEMBL document CHEMBL1201862.
